Values compiled from paper PMC5540273.

System: SLK
Conditions: concentration: 1 μM, replicates: in singlicate; n = 1;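 further: KINOMEscan kinase panel screen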

- LINE_NOTATION: "O=C(Nc1cccc(-c2nn3ncccc3c2-c2ccnc(Nc3ccccc3)n2)c1)c1c(F)cccc1F"
  TARGET_OR_SYSTEM: "SLK"
  %Inh, %: 95
- LINE_NOTATION: "CN(C)Cc1ccc(-c2ccc3c(Nc4ccc(Oc5ccccn5)cc4)ccnc3c2)o1"
  TARGET_OR_SYSTEM: "SLK"
  %Inh, %: 31
- LINE_NOTATION: "Cn1cc(-c2[nH]c3cc(NC(=O)[C@H](N)C4CCCCC4)cc4c3c2C=NNC4=O)cn1"
  TARGET_OR_SYSTEM: "SLK"
  %Inh, %: 14
- LINE_NOTATION: "Oc1cc(Nc2ccnc3cc(I)ccc23)ccc1F"
  TARGET_OR_SYSTEM: "SLK"
  %Inh, %: 16
- LINE_NOTATION: "Cl.NC(=O)c1cccc(Nc2nccc(Nc3ccc(Oc4c(Cl)cccc4Cl)c(Cl)c3)n2)c1"
  TARGET_OR_SYSTEM: "SLK"
  %Inh, %: 0
- LINE_NOTATION: "Cl.c1ccc(-c2ccc3c(Nc4ccc5[nH]ncc5c4)ccnc3c2)nc1"
  TARGET_OR_SYSTEM: "SLK"
  %Inh, %: 31
- LINE_NOTATION: "Fc1ccc(-c2ncn(C3CCNCC3)c2-c2ccnc(Oc3ccc(-c4ccccc4)cc3)n2)cc1"
  TARGET_OR_SYSTEM: "SLK"
  %Inh, %: 0
- LINE_NOTATION: "Cc1occc1-c1ncc(OC[C@@H](N)Cc2c[nH]c3ccccc23)cc1-c1ccc2[nH]nc(C)c2c1.O=C(O)C(F)(F)F"
  TARGET_OR_SYSTEM: "SLK"
  %Inh, %: 95.2

----------
System: EPHB3
Details: concentration: 1 μM, replicates: in singlicate; n = 1

- MOLECULE: "COc1cc(Nc2nccc(N3CCC(NC(=O)c4cc5ccccc5s4)C3)n2)cc(OC)c1OC (stereo not shown)"
  TARGET_OR_SYSTEM: "EPHB3"
  %Inh: "5%"
- MOLECULE: "Clc1ccc(-c2nn3ncccc3c2-c2ccnc(Nc3ccc4c(c3)OCCO4)n2)cc1"
  TARGET_OR_SYSTEM: "EPHB3"
  %Inh: "7%"
- MOLECULE: "Nc1ncc(-c2cccnc2)c2scc(-c3ccc4c(c3)CCN4C(=O)Cc3ccccc3)c12"
  TARGET_OR_SYSTEM: "EPHB3"
  %Inh: "12%"
- MOLECULE: "Cc1cccc(NC(=O)Nc2ccc(Oc3ncnc4ccn(C)c34)cc2)c1"
  TARGET_OR_SYSTEM: "EPHB3"
  %Inh: "21%"

----------
Tested on: SRPK1
Conditions: concentration: 1 μM, replicates: in singlicate; n = 1
Checkbox rule: %Inh lower than 30% = condition met; %Inh not lower than 30% = condition not met.

- COMPOUND: "O=C(Nc1cccc(Oc2ccc3nc(NC(=O)C4CC4)cn3n2)c1)c1ccccc1C(F)(F)F"
  LABEL: "condition not met"
- COMPOUND: "O=C(Nc1cccc(-c2nn3ncccc3c2-c2ccnc(Nc3ccccc3)n2)c1)c1c(F)cccc1F [GSK198271]"
  LABEL: "condition not met"
- COMPOUND: "Cc1ccc(S(=O)(=O)Nc2ccc(Nc3nccc(Nc4cccc5[nH]ncc45)n3)cc2)cc1 [GSK581271]"
  LABEL: "condition not met"
- COMPOUND: "COC(=O)Nc1nc2ccc(Oc3ccc(NC(=O)Nc4cc(C(F)(F)F)ccc4F)cc3)cc2n1C.Cl [GW692089]"
  LABEL: "condition met"
- COMPOUND: "Cn1cc(-c2ccc3c(c2)CCN3C(=O)Cc2cccc(F)c2)c2c(N)ncnc21 [GSK2603358]"
  LABEL: "condition met"
- COMPOUND: "Nc1n[nH]c2cnc(-c3ccccc3)cc12 [SB-642124]"
  LABEL: "condition met"
- COMPOUND: "COc1cc(Nc2nccc(N3CCC(NC(=O)c4cc5ccccc5s4)C3)n2)cc(OC)c1OC (centres unmarked) [GSK1379760]"
  LABEL: "condition not met"
- COMPOUND: "Cl.Cl.NCC(NCc1ccc(-c2ccnc3[nH]ccc23)s1)c1ccccc1 (centres unmarked) [GSK1321565]"
  LABEL: "condition not met"
